Test system: Calu-3
Assay: In vitro cytotoxicity (cell proliferation inhibition), SRB dye or Cell titer glo
Type: cell-based, human
Details: Calu-3, 144 hours
Square brackets hold non-standard residues; d marks the D form. Peptide text beside a SMILES is read from it. * marks the point of attachment. Dolaproine = CO[C@@H]([C@@H]1CCCN1)[C@@H](C)C(=O)O; Dil = CC[C@H](C)[C@H](NC)[C@@H](CC(=O)O)OC; X1 = C[C@@H](N*)[C@@H](O)c1ccccc1; NMeV = CN[C@H](C(=O)O)C(C)C
PARAMETER_MEASURED: CC50 (nM)
Write it as a number; the unit nM goes unstated.

Input line: Retrieve CC50 measured for CC[C@H](C)[C@@H]([C@@H](CC(=O)N1CCC[C@H]1[C@H](OC)[C@@H](C)C(=O)N[C@H](C)[C@@H](O)c1ccccc1)OC)N(C)C(=O)[C@@H](NC(=O)[C@@H](NC)C(C)C)C(C)C [MMAE, monomethyl auristatin E] (H-[NMeV]V[Dil][Dolaproine]-X1) and print it.
Output line: 0.4

---

Tested on: HCT15
Test: In vitro cytotoxicity (cell proliferation inhibition), SRB dye or Cell titer glo
Format: cell-based, human
Conditions: HCT15, 144 hours
Square brackets hold non-standard residues; d marks the D form. Peptide text beside a SMILES is read from it. * marks the point of attachment. Dolaproine = CO[C@@H]([C@@H]1CCCN1)[C@@H](C)C(=O)O; Dil = CC[C@H](C)[C@H](NC)[C@@H](CC(=O)O)OC; X1 = C[C@@H](N*)[C@@H](O)c1ccccc1; NMeV = CN[C@H](C(=O)O)C(C)C
Recorded measurements of CC50, one per entry
Use nM as the unit, but write only the number.

Input line: Give recorded CC50. CC[C@H](C)[C@@H]([C@@H](CC(=O)N1CCC[C@H]1[C@H](OC)[C@@H](C)C(=O)N[C@H](C)[C@@H](O)c1ccccc1)OC)N(C)C(=O)[C@@H](NC(=O)[C@@H](NC)C(C)C)C(C)C [MMAE, monomethyl auristatin E] (H-[NMeV]V[Dil][Dolaproine]-X1)
Output line: 3.87

Input line: Write down CC50 measured for item C=C1C[C@H]2C=Nc3cc(OCCCCCOc4cc5c(cc4OC)C(=O)N4CC(=C)C[C@H]4C=N5)c(OC)cc3C(=O)N2C1 [SG2057]
Output line: 0.161

---

Test system: BxPC-3
Assay: In vitro cytotoxicity (cell proliferation inhibition), SRB dye or Cell titer glo
Format: cell-based, human
Conditions: BxPC-3, 144 hours
Square brackets hold non-standard residues; d marks the D form. Peptide text beside a SMILES is read from it. * marks the point of attachment. Dolaproine = CO[C@@H]([C@@H]1CCCN1)[C@@H](C)C(=O)O; Dil = CC[C@H](C)[C@H](NC)[C@@H](CC(=O)O)OC; X1 = C[C@@H](N*)[C@@H](O)c1ccccc1; NMeV = CN[C@H](C(=O)O)C(C)C
PARAMETER_MEASURED: CC50 (nM)
Respond with the bare value in nM.

Input line: Identify measured CC50 corresponding to CC[C@H](C)[C@@H]([C@@H](CC(=O)N1CCC[C@H]1[C@H](OC)[C@@H](C)C(=O)N[C@H](C)[C@@H](O)c1ccccc1)OC)N(C)C(=O)[C@@H](NC(=O)[C@@H](NC)C(C)C)C(C)C [MMAE, monomethyl auristatin E] (H-[NMeV]V[Dil][Dolaproine]-X1)
Output line: 0.606

---

Test system: LNCaP
Assay: In vitro cytotoxicity (cell proliferation inhibition), SRB dye or Cell titer glo
Format: cell-based, human
Conditions: 144 hours
Square brackets hold non-standard residues; d marks the D form. Peptide text beside a SMILES is read from it. * marks the point of attachment. Dolaproine = CO[C@@H]([C@@H]1CCCN1)[C@@H](C)C(=O)O; Dil = CC[C@H](C)[C@H](NC)[C@@H](CC(=O)O)OC; X1 = C[C@@H](N*)[C@@H](O)c1ccccc1; NMeV = CN[C@H](C(=O)O)C(C)C
PARAMETER_MEASURED: CC50 (nM)
Write the answer as a number in nM, unit excluded.

Input line: Return reported CC50. Input compound: CC[C@H](C)[C@@H]([C@@H](CC(=O)N1CCC[C@H]1[C@H](OC)[C@@H](C)C(=O)N[C@H](C)[C@@H](O)c1ccccc1)OC)N(C)C(=O)[C@@H](NC(=O)[C@@H](NC)C(C)C)C(C)C [MMAE, monomethyl auristatin E] (H-[NMeV]V[Dil][Dolaproine]-X1)
Output line: 0.551

---

Tested on: MDA-MB-468
Assay: In vitro cytotoxicity (cell proliferation inhibition), SRB dye or Cell titer glo
Format: cell-based, human
Conditions: MDA-MB-468, 144 hours
Square brackets hold non-standard residues; d marks the D form. Peptide text beside a SMILES is read from it. * marks the point of attachment. Dolaproine = CO[C@@H]([C@@H]1CCCN1)[C@@H](C)C(=O)O; Dil = CC[C@H](C)[C@H](NC)[C@@H](CC(=O)O)OC; X1 = C[C@@H](N*)[C@@H](O)c1ccccc1; NMeV = CN[C@H](C(=O)O)C(C)C
PARAMETER_MEASURED: CC50

Input line: Give CC50 for CC[C@H](C)[C@@H]([C@@H](CC(=O)N1CCC[C@H]1[C@H](OC)[C@@H](C)C(=O)N[C@H](C)[C@@H](O)c1ccccc1)OC)N(C)C(=O)[C@@H](NC(=O)[C@@H](NC)C(C)C)C(C)C [MMAE, monomethyl auristatin E] (H-[NMeV]V[Dil][Dolaproine]-X1)
Output line: 0.64 nM

---

Test system: COLO205
Test: In vitro cytotoxicity (cell proliferation inhibition), SRB dye or Cell titer glo
Assay type: cell-based, human
Details: COLO205, 144 hours
Square brackets hold non-standard residues; d marks the D form. Peptide text beside a SMILES is read from it. * marks the point of attachment. Dolaproine = CO[C@@H]([C@@H]1CCCN1)[C@@H](C)C(=O)O; Dil = CC[C@H](C)[C@H](NC)[C@@H](CC(=O)O)OC; X1 = C[C@@H](N*)[C@@H](O)c1ccccc1; NMeV = CN[C@H](C(=O)O)C(C)C
PARAMETER_MEASURED: CC50 (nM)
Respond numerically; units are nM and should not be typed.

Input line: Identify the reported CC50 for the following entry. CC[C@H](C)[C@@H]([C@@H](CC(=O)N1CCC[C@H]1[C@H](OC)[C@@H](C)C(=O)N[C@H](C)[C@@H](O)c1ccccc1)OC)N(C)C(=O)[C@@H](NC(=O)[C@@H](NC)C(C)C)C(C)C [MMAE, monomethyl auristatin E] (H-[NMeV]V[Dil][Dolaproine]-X1)
Output line: 0.628

---

Tested on: NCI-N87
Assay: In vitro cytotoxicity (cell proliferation inhibition), SRB dye or Cell titer glo
Format: cell-based, human
Settings: NCI-N87, 144 hours
Square brackets hold non-standard residues; d marks the D form. Peptide text beside a SMILES is read from it. * marks the point of attachment. Dolaproine = CO[C@@H]([C@@H]1CCCN1)[C@@H](C)C(=O)O; Dil = CC[C@H](C)[C@H](NC)[C@@H](CC(=O)O)OC; X1 = C[C@@H](N*)[C@@H](O)c1ccccc1; NMeV = CN[C@H](C(=O)O)C(C)C
PARAMETER_MEASURED: CC50
Record the result as number plus unit.

Input line: Indicate the recorded CC50 value for this compound: CC[C@H](C)[C@@H]([C@@H](CC(=O)N1CCC[C@H]1[C@H](OC)[C@@H](C)C(=O)N[C@H](C)[C@@H](O)c1ccccc1)OC)N(C)C(=O)[C@@H](NC(=O)[C@@H](NC)C(C)C)C(C)C [MMAE, monomethyl auristatin E] (H-[NMeV]V[Dil][Dolaproine]-X1)
Output line: 0.725 nM

---

Test system: Calu-1
Test: In vitro cytotoxicity (cell proliferation inhibition), SRB dye or Cell titer glo
Format: cell-based, human
Conditions: Calu-1, 144 hours
Square brackets hold non-standard residues; d marks the D form. Peptide text beside a SMILES is read from it. * marks the point of attachment. Dolaproine = CO[C@@H]([C@@H]1CCCN1)[C@@H](C)C(=O)O; Dil = CC[C@H](C)[C@H](NC)[C@@H](CC(=O)O)OC; X1 = C[C@@H](N*)[C@@H](O)c1ccccc1; NMeV = CN[C@H](C(=O)O)C(C)C
PARAMETER_MEASURED: CC50 (nM)
Write down the numeric answer in nM and omit the unit.

Input line: Kindly indicate its recorded CC50. Item: CC[C@H](C)[C@@H]([C@@H](CC(=O)N1CCC[C@H]1[C@H](OC)[C@@H](C)C(=O)N[C@H](C)[C@@H](O)c1ccccc1)OC)N(C)C(=O)[C@@H](NC(=O)[C@@H](NC)C(C)C)C(C)C [MMAE, monomethyl auristatin E] (H-[NMeV]V[Dil][Dolaproine]-X1)
Output line: 0.971
